In this section, each of the compounds is paired with its reported growth.
Test system: MCF7 breast
assay.protocol: NCI-60 one-dose screen, 48 h (100 = growth as untreated, 0 = no growth, -100 = all killed)
experimental.conditions: 10 µM unless noted
The panel holds about 83,000 compounds, 20% with a hit somewhere; the sample as a whole holds those more often.

compound: C[n+]1cc2cc3c(cc2c2ccccc21)OCO3
experimental.target: MCF7 breast
quantity.unit: %
growth: 24.5
--
compound: CC(=O)OCC1CCC(COC(C)=O)CC1 (stereo not given)
experimental.target: MCF7 breast
quantity.unit: %
growth: 90.9
--
compound: Cc1ccc2nc(N)nnc2c1
experimental.target: MCF7 breast
quantity.unit: %
growth: 104
--
compound: Cc1cccc(C)c1NC(=S)/N=C\c1c(O)[nH]c(=O)[nH]c1=O
experimental.target: MCF7 breast
quantity.unit: %
growth: 93.6
--
compound: CNc1ccccc1C(=O)N/N=C/C=C/c1ccccc1
experimental.target: MCF7 breast
quantity.unit: %
growth: 12.2
--
compound: O=C(O)c1cc(I)ccc1O
experimental.target: MCF7 breast
quantity.unit: %
growth: 95.7
--
compound: CCOc1ccc(C(=O)O)cc1
experimental.target: MCF7 breast
quantity.unit: %
growth: 94
--
compound: O=C(O)C1CCCN1C(=O)OCc1ccccc1 (stereo not given)
experimental.target: MCF7 breast
quantity.unit: %
growth: 90
--
compound: Cc1ccc(C)c(CN(C)C)c1O
experimental.target: MCF7 breast
quantity.unit: %
growth: 102
--
compound: CCOC(=O)CO
experimental.target: MCF7 breast
quantity.unit: %
growth: 97.5
--
compound: O=C1C=C(c2ccccc2)C(O)(c2ccccc2)C1 (stereo not given)
experimental.target: MCF7 breast
quantity.unit: %
growth: 98.2
--
compound: CCc1ccccc1C(=O)N(CC)CC
experimental.target: MCF7 breast
quantity.unit: %
growth: 91
--
compound: O=C1NC(=O)/C(=C\c2ccncc2)N1
experimental.target: MCF7 breast
quantity.unit: %
growth: 94.9
--
compound: CCC(C)C1CCC(O)CC1 (stereo not given)
experimental.target: MCF7 breast
quantity.unit: %
growth: 100
--
compound: C=COC(=O)C(C)(C)C
experimental.target: MCF7 breast
quantity.unit: %
growth: 96

====

Tested on: RXF 393 renal
assay.protocol: NCI-60 one-dose screen, 48 h (100 = growth as untreated, 0 = no growth, -100 = all killed)
experimental.conditions: 10 µM unless noted
The panel holds about 83,000 compounds, 20% with a hit somewhere; the sample as a whole holds those more often.
parameter: growth (%)

cpd.smiles: Cc1cc2c3ccc(C)[n+](C)c3ccc2n1C
experimental.target: RXF 393 renal
parameter: growth
quantity.unit: %
observed.result: 61.6
//
cpd.smiles: O=S(=O)(OCCOS(=O)(=O)c1ccccc1)c1ccccc1
experimental.target: RXF 393 renal
parameter: growth
quantity.unit: %
observed.result: 96
//
cpd.smiles: O=S(=O)(O)c1ccc(O)c(C2CCCCC2)c1
experimental.target: RXF 393 renal
parameter: growth
quantity.unit: %
observed.result: 105
//
cpd.smiles: Cc1ccc(S(N)(=O)=O)cc1Cl
experimental.target: RXF 393 renal
parameter: growth
quantity.unit: %
observed.result: 125
//
cpd.smiles: COc1nc(Nc2cccc(C(F)(F)F)c2)nc(OC)n1
experimental.target: RXF 393 renal
parameter: growth
quantity.unit: %
observed.result: 102
//
cpd.smiles: O=c1nc(Nc2cccc(Cl)c2)oc2cc(Cl)oc(=O)c12
experimental.target: RXF 393 renal
parameter: growth
quantity.unit: %
observed.result: 42.5
//
cpd.smiles: CCN(CC)CCN1CNC(=S)NC1
experimental.target: RXF 393 renal
parameter: growth
quantity.unit: %
observed.result: 114

====

In this section, each of the compounds is paired with its reported growth.
Test system: SNB-75 CNS
assay.protocol: NCI-60 one-dose screen, 48 h (100 = growth as untreated, 0 = no growth, -100 = all killed)
experimental.conditions: 10 µM unless noted
The panel holds about 83,000 compounds, 20% with a hit somewhere; the sample as a whole holds those more often.

compound: Cc1ccc(S(=O)(=O)NC(=O)NCCSSCCNC(=O)NS(=O)(=O)c2ccc(C)cc2)cc1
quantity.unit: %
growth: 85.5

compound: CSc1nc2[nH]ncc2c(=O)[nH]1
quantity.unit: %
growth: 103

compound: O=C(OCC1CCCO1)c1ccc([N+](=O)[O-])cc1 (stereo not drawn)
quantity.unit: %
growth: 85.8

compound: O=S(=O)(O)c1cccnc1
quantity.unit: %
growth: 79.5

compound: COC(=O)c1ccc([N+](=O)[O-])c(C)c1
quantity.unit: %
growth: 88.4

compound: CC(C)c1ccc(C(=O)OCCCl)cc1
quantity.unit: %
growth: 94

compound: S=C=Nc1ccc2ccccc2c1
quantity.unit: %
growth: 94.5

compound: Clc1ccc(-c2noc(/C=C\c3ccccc3)n2)cc1
quantity.unit: %
growth: 103

compound: COc1ccc(C2CC(c3ccccc3)=Nc3ccccc3S2)cc1 (stereo not drawn)
quantity.unit: %
growth: 80.7

compound: CN(C)Cc1ccccn1
quantity.unit: %
growth: 95.7

compound: CCNc1ccc2ccccc2c1N=Nc1ccc(N=Nc2ccccc2)cc1
quantity.unit: %
growth: 100

compound: Cn1c(=O)c2[nH]c(CC(=O)O)nc2n(C)c1=O
quantity.unit: %
growth: 98.1

compound: O=C(O)Cc1cccc2ccccc12
quantity.unit: %
growth: 82.2

====

Test system: U251 CNS
assay.protocol: NCI-60 one-dose screen, 48 h
experimental.conditions: 10 µM unless noted
The panel holds about 83,000 compounds, 20% with a hit somewhere; the sample as a whole holds those more often. The source made the active and inactive calls. Rule for the calls: active = growth percent below 10; inactive = the rest.
Labels: active, inactive

compound: N#C/C(=C\c1ccc(C#N)cc1)C(=O)c1ccccc1
assigned.category: inactive
--
compound: CC(C)(C)NCCC(O)c1cc(C(F)(F)F)nc2c(C(F)(F)F)cccc12 (centres undefined)
assigned.category: inactive
--
compound: Oc1ccc(CCC2CCNc3ccccc32)cc1 (centres undefined)
assigned.category: inactive
--
compound: CS(=O)(=O)c1ccc(/C=C\C(=O)O)cc1
assigned.category: inactive
--
compound: O=[N+]([O-])c1ccc2[nH]c(=S)n(/C=C(/c3ccc(Cl)cc3Cl)S(=O)(=O)Cc3ccc(Cl)cc3Cl)c2c1
assigned.category: inactive
--
compound: CCNc1ccc2ccccc2c1N=Nc1ccc(N=Nc2ccccc2)cc1
assigned.category: inactive
--
compound: C/C(Cc1ccccc1)=N\O
assigned.category: inactive
--
compound: O=c1[nH]c(=O)c2cc(Cl)cc(Cl)c2[nH]1
assigned.category: inactive
--
compound: Cc1ccc(C)c(CN(C)C)c1O
assigned.category: inactive
--
compound: O=Cc1c(O)c2ccccc2[nH]c1=O
assigned.category: inactive
--
compound: CNc1ccccc1C(N)=O
assigned.category: inactive
--
compound: CC1CCC(C(C)(C)[N+](C)(C)C)CC1 (centres undefined)
assigned.category: inactive
--
compound: C=COC(=O)C(C)(C)C
assigned.category: inactive
--
compound: Cc1ccc2[nH]c3ccccc3c2c1
assigned.category: inactive
--
compound: COC1OC(C(COC(C)=O)OC(C)=O)C(OC(C)=O)C(OC(C)=O)C1OC(C)=O (centres undefined)
assigned.category: inactive
--
compound: COC(c1ccc2c(c1)OCO2)C(C)Br (centres undefined)
assigned.category: inactive
--
compound: NC(=S)N/N=C/c1ccc(OC(=O)COc2ccccc2)cn1
assigned.category: inactive
--
compound: Nc1nc(Cl)cc(Cl)n1
assigned.category: inactive
--
compound: COc1c(CNC(=O)CCl)cc2[nH]c(C)cc2c1CNC(=O)CCl
assigned.category: inactive
--
compound: CCCCc1ccc2nc(NC(=O)OC)[nH]c2c1
assigned.category: inactive
--
compound: CC1CC(C)S(=O)(=O)C1 (centres undefined)
assigned.category: inactive
--
compound: COC(=O)c1cccc([N+](=O)[O-])c1
assigned.category: inactive
--
compound: COCC(N)=O
assigned.category: inactive
--
compound: CC(=O)CSc1ncnc2nc[nH]c12
assigned.category: inactive
--
compound: N#Cc1ccc(OC(=O)Nc2cc(Cl)cc(Cl)c2)cc1
assigned.category: active
--
compound: COc1ccc(C(=O)/C(=N/Nc2ccccc2)c2ccc(OC)cc2)cc1
assigned.category: inactive
--
compound: CC1=CC(=Nc2ccc(N(C)C)cc2)C=C(C)C1=O
assigned.category: inactive
--
compound: NC(=O)c1cc2c3ccccc3ccn2c1-c1ccccc1
assigned.category: inactive
--
compound: CN(C)c1ncnc2c1cnn2C
assigned.category: inactive
--
compound: CC(C)(C)[Si](C)(C)OCC1OC(n2cnc3c(N)ncnc32)CC1OS(C)(=O)=O (centres undefined)
assigned.category: inactive
--
compound: Nc1cc2ccccc2c(O)c1O
assigned.category: inactive
--
compound: COc1ccc2c(Cl)cc(NC(=O)Nc3c(C)cccc3C)nc2c1
assigned.category: inactive
--
compound: Nc1cccc2cccc(O)c12
assigned.category: inactive
--
compound: COC1OC(CO)C(OC)C(O)C1O (centres undefined)
assigned.category: inactive
--
compound: N#Cc1ccc2nc[nH]c2c1
assigned.category: inactive
--
compound: Clc1ccc(C(SCc2ccccc2)SCc2ccccc2)cc1
assigned.category: inactive
--
compound: C1CCc2onc(-c3noc4c3CCCCC4)c2CC1
assigned.category: inactive
--
compound: Cc1ccc(/C=N/NC(N)=S)s1
assigned.category: inactive
--
compound: CCOC(=O)N[C@H]1CCc2cc(OC)c(OC)c(OC)c2-c2ccc(SC)c(=O)cc21
assigned.category: inactive
--
compound: COC(=O)c1ccc([N+](=O)[O-])c(C)c1
assigned.category: inactive
--
compound: COC1C(=O)CCC2(CO2)C1(O)C1(C)OC1CCC(C)C (centres undefined)
assigned.category: inactive
--
compound: O=C1C=CC(=O)C2=C1CCCC2
assigned.category: inactive
--
compound: CN(C)c1ccc2nc3ccc(=[N+](C)C)cc-3oc2c1
assigned.category: active
--
compound: O=c1cc(C(F)(F)F)[nH]c(=S)[nH]1
assigned.category: inactive
--
compound: Cc1cc(CC(=O)NCCO)n(CCO)c(=O)c1
assigned.category: inactive
--
compound: OCC(O)COc1ccc(Cl)cc1Cl (centres undefined)
assigned.category: inactive
--
compound: CCNCC(C)(C)O
assigned.category: inactive
--
compound: Nc1ccn(C2CC(N)C(CO)O2)c(=O)n1 (centres undefined)
assigned.category: inactive
--
compound: CC1CCC(C)(C)c2ccccc21 (centres undefined)
assigned.category: inactive
--
compound: Cc1ccc(S(=O)(=O)CCCl)cc1
assigned.category: inactive
--
compound: Oc1cc(O)c2c(c1)O[C@H](c1ccc(O)c(O)c1)[C@@H](O)C2
assigned.category: inactive
--
compound: O=C(O)C1CSC(c2ccccc2)N1 (centres undefined)
assigned.category: inactive
--
compound: CCOc1ccc2c(c1)c(C)cc(C)[n+]2CC
assigned.category: inactive
--
compound: CC1CC2C3CCC4=CC(=O)CCC4(C)C3CCC2(C)C1(O)C(=O)CO (centres undefined)
assigned.category: inactive
